molecular target: WT RBD (SARS-CoV-2 Wuhan-Hu-1 spike receptor binding domain) (SARS-CoV-2 (Wuhan-Hu-1), UniProt P0DTC2); assay: BLI; conditions: both partners purified
Measure name: Kd (nM)
The figure you give is taken to be in nM; do not add the unit.

// solved cases for Kd follow
Sample C3055 (antibody, V domains shown, source: 293-6E cells, transfected, purified (Protein G Sepharose)) VH: QVQLVQSGAEVKKPGSSVNVSCRASGGTFSSKTISWVRQAPGQGLEWMGKIFPILGVANYAQKFQGRVTITADRSTNTAYMELNSLRSEDTAIYYCATEEGYSSSRSLPAEYFRQWGQGTLVTVSS VL: QSVLTQPPSVSGAPGQRVTISCTGSNSNIGAGYDVHWYQQLPGTAPKLLIYANTNRPSGVPDRFSGSKSGTSASLAITGLQAEDEADYYCQSYDSGLSGSLFGGGTKLTVL ; Kd observed: 0.592

In plain terms, B1034 (antibody, V domains shown, source: 293-6E cells, transfected, purified (Protein G Sepharose)) VH: QVQLVQSGSEVKKPGASVKVSCKASGNTFITYYTHWVRQAPGQGLEWMGVIKPSDGYTNYAQKFQGRVTMTRDTSASTVYMELSSLTSDDTAVYYCARDSSIAARVVDWGQGTLVTVSS VL: DIQMTQSPSSLSASVGDRVTITCQASQDIYNYLNWYQQKPGKAPKLLIFDAINLETGVPSRFSGSGSGTDFTLTISSLQPEDIATYYCQQHDNLPYSFGQGTKLEIK has a documented Kd of 0.734

Measured Kd of B1011 (antibody, V domains shown, source: 293-6E cells, transfected, purified (Protein G Sepharose)) VH: QVQLVQSGAEVKKPGASVKVSCKASGYTFISYYTHWVRQAPGQGLEWMGIINPSDGYTSYAQKFQGRVTMTRDTSASTVYMELSSLRSEDTAVYYCARDSSIAARVVAWGQGTLVTVSS VL: DIQMTQSPSSLSASVGDRVTITCQASQDIYNYLNWYQQKPGKAPKLLIFDAINLETGVPSRFSGSGSGTDFTFTISSLQPEDIATYYCQQHDNLPYSFGQGTKLEIK : 0.893

Kd measured on C2606 (antibody, V domains shown, source: 293-6E cells, transfected, purified (Protein G Sepharose)) VH: QVQLVQSGAEVKKPGSSVKVSCKASGDTFRSYAISWVRQAPGQGLEWMGRIIPMLGITTYEQKYQGRLKIIADKSTSTAYMELSSLRSEDTAVYFCARDGVGATEPYYYDYWGQGTLVTVSS VL: QSVLTQPASVSGSPGQSIIISCTGTSSDVGKYDFVSWYQQHPGKAPKLMIYDVSKRPSGVSDRFSGSKSGNTASLTISGLQAEDEADYHCASYTSDSSYLVFGGGTKLTVL = 0.743

---
# Kd (binder: C118 (antibody, V domains shown, source: 293-6E cells, transfected, purified (Protein G Sepharose)) VH: QVQLVESGGGVVQPGRSLRLSCAASGFTFSNYAMHWVRQAPGKGLEWVAVISYDGSNKYYADSVKGRFTISRDNSKNTLYLQMNSLRAEDTAIYYCASGYTGYDYFVRGDYYGLDVWGQGTTVTVSS VL: QPVLTQSPSASASLGASVKLTCTLSSGHSSYAIAWHQQQPEKGPRYLMKLNTDGSHSKGDGIPDRFSGSSSGAERYLTISSLQSEDEADYYCQTWGTGILVFGGGTKLTVL ) is 2.66
